- TARGET: T1, EsCas13d, nuclease-dead (Eubacterium siraeum, UniProt B0MS50, R295A;H300A;R849A;H854A)
- T1 sequence: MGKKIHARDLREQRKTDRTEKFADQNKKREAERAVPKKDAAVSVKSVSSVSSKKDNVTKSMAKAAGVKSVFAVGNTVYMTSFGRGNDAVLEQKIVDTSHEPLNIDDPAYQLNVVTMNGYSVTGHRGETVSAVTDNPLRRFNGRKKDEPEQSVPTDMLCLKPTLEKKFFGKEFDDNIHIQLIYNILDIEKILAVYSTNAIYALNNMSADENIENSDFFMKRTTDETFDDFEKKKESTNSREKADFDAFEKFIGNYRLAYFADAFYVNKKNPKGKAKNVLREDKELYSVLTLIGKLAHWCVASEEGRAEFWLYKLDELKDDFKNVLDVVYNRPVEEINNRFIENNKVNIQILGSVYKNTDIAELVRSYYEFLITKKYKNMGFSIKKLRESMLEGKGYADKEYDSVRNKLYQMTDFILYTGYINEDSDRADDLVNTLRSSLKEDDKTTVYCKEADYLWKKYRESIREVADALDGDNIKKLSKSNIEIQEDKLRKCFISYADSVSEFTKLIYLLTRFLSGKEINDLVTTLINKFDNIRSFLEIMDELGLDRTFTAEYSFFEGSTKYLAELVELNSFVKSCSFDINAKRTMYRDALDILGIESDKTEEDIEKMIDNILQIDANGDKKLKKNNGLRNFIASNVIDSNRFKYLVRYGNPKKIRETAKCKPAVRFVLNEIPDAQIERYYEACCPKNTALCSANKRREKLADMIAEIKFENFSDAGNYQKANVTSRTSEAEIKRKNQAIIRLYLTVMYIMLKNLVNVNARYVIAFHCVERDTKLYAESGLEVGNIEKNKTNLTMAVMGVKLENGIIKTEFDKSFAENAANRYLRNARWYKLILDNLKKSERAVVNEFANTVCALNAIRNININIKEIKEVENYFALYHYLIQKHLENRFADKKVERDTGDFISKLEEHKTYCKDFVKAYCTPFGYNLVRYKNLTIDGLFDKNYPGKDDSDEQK
- ASSAY SUMMARY: crRNA (strand 1, pre-loaded); Mg2+; 40 mM Tris-HCl pH 7.5, 150 mM NaCl, 6 mM MgCl2, 1 mM DTT, 0.1% Tween-20, 0.2 mg/ml BSA; 25 C; 10 min per concentration, then washed
- TEST CONTEXT: tags: His6-TwinStrep-SUMO cleaved; N-terminal SNAP kept (SNAP-Surface 488); label: 3' end held by stalled T7 RNA polymerase
Listed next: entries and their corresponding Kd.
READOUT TYPE: Kd (nM)

target 1 A1C,C6G (mixed) RNA 1: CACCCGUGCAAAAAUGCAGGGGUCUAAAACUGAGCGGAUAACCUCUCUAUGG RNA 2: GGGAAUGGAUCCACAUCUACGAAUUCGUACCAUAGAGAGGUUAUCGGCUCCCCGAGAUCGGAAGAGCACACGU	12.1
target 1 insC 3' of 20,insA 3' of 6 (mixed) RNA 1: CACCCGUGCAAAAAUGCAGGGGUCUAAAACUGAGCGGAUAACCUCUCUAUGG RNA 2: GGGAAUGGAUCCACAUCUACGAAUUCGUACCACUAGAGAGGUUAUCCAGCUCACCGAGAUCGGAAGAGCACACGU	11.1
target 1 insC 3' of 15,insC 3' of 10 (mixed) RNA 1: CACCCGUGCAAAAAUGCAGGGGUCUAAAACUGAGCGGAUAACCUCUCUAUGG RNA 2: GGGAAUGGAUCCACAUCUACGAAUUCGUACCAUAGAGCAGGUUCAUCCGCUCACCGAGAUCGGAAGAGCACACGU	17.3
target 2 MT 5'PFS CUU 3'PFS ACA (mixed) RNA 1: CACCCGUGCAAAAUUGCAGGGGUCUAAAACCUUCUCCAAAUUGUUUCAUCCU RNA 2: GGGAAUGGAUCCACAUCUACGAAUUCCUUAGGAUGAAACAAUUUGGAGAAGACAAGAUCGGAAGAGCACACGU	4.9
target 1 insU 3' of 18,insC 3' of 14 (mixed) RNA 1: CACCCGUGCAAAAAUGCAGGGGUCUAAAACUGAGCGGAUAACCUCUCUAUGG RNA 2: GGGAAUGGAUCCACAUCUACGAAUUCGUACCAUAUGAGACGGUUAUCCGCUCACCGAGAUCGGAAGAGCACACGU	73
target 1 insU 3' of 22,insU 3' of 6 (mixed) RNA 1: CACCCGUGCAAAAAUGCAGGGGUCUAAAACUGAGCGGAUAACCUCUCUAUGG RNA 2: GGGAAUGGAUCCACAUCUACGAAUUCGUACUCAUAGAGAGGUUAUCCUGCUCACCGAGAUCGGAAGAGCACACGU	38
target 2 MT 5'PFS CAC 3'PFS UUA (mixed) RNA 1: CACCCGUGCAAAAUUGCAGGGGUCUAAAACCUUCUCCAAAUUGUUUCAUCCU RNA 2: GGGAAUGGAUCCACAUCUACGAAUUCCACAGGAUGAAACAAUUUGGAGAAGUUAAGAUCGGAAGAGCACACGU	4.4
target 1 insA 3' of 17,insG 3' of 2 (mixed) RNA 1: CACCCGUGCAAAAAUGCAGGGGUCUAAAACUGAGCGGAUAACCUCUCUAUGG RNA 2: GGGAAUGGAUCCACAUCUACGAAUUCGUACCAUAGAAGAGGUUAUCCGCUCGACCGAGAUCGGAAGAGCACACGU	17.3
target 2 MT 5'PFS UGA 3'PFS AGC (mixed) RNA 1: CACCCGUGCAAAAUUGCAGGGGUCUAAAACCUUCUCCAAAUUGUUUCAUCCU RNA 2: GGGAAUGGAUCCACAUCUACGAAUUCUGAAGGAUGAAACAAUUUGGAGAAGAGCAGAUCGGAAGAGCACACGU	6
target 2 MT 5'PFS GGA 3'PFS AUU (mixed) RNA 1: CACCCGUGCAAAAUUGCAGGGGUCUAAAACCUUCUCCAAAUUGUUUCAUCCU RNA 2: GGGAAUGGAUCCACAUCUACGAAUUCGGAAGGAUGAAACAAUUUGGAGAAGAUUAGAUCGGAAGAGCACACGU	9
target 1 A1G,G15U (mixed) RNA 1: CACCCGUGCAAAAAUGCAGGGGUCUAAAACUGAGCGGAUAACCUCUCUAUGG RNA 2: GGGAAUGGAUCCACAUCUACGAAUUCGUACCAUAGAUAGGUUAUCCGCUCGCCGAGAUCGGAAGAGCACACGU	23
target 1 insU 3' of 12,insA 3' of 5 (mixed) RNA 1: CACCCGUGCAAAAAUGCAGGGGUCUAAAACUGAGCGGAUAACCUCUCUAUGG RNA 2: GGGAAUGGAUCCACAUCUACGAAUUCGUACCAUAGAGAGGUUUAUCCGACUCACCGAGAUCGGAAGAGCACACGU	4.32
target 1 insU 3' of 5,insU 3' of 1 (mixed) RNA 1: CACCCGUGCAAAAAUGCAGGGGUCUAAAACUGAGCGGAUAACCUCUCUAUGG RNA 2: GGGAAUGGAUCCACAUCUACGAAUUCGUACCAUAGAGAGGUUAUCCGUCUCAUCCGAGAUCGGAAGAGCACACGU	13.5
target 2 MT 5'PFS CUU 3'PFS CUU (mixed) RNA 1: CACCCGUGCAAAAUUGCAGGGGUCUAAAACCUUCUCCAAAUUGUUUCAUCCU RNA 2: GGGAAUGGAUCCACAUCUACGAAUUCCUUAGGAUGAAACAAUUUGGAGAAGCUUAGAUCGGAAGAGCACACGU	4.7
target 2 MT 5'PFS AUG 3'PFS AAC (mixed) RNA 1: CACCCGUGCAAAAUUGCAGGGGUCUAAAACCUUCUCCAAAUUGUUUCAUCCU RNA 2: GGGAAUGGAUCCACAUCUACGAAUUCAUGAGGAUGAAACAAUUUGGAGAAGAACAGAUCGGAAGAGCACACGU	18
